# Test system: SNB-75
# procedure-text: NCI tumour cell line growth inhibition, 48 h
Active and inactive are the calls of the source. Cut-off read from the data, not from the text of the source: active = GI50 up to about 1.1 µM and inactive = higher.
Choose the fitting class; nothing outside active, inactive is accepted.

Inquiry: Any idea what this test logged for COc1cc(/C=C2\C(=O)N(c3cccc(NC(C)=O)c3)C(c3ccccc3)S2(=O)=O)cc(OC)c1OC (stereo not given) ?
Reply text: inactive

Inquiry: And then CC(=O)NCCC1CN(C(=O)/C=C/I)c2ccccc21 (stereo not given) , what is it?
Reply text: inactive

Inquiry: And then C[C@@H]1CC[C@@]2(C)C(C(=O)O)=CCCC2[C@@]1(C)CC(=O)c1ccoc1 (stereo not given in full) , what is it?
Reply text: inactive

Inquiry: And then CN(C)CCC(O)(c1ccccc1)C(O)(CCN(C)C)c1ccccc1 (stereo not given) , what is it?
Reply text: inactive

Inquiry: And then C=CCN(c1cc(OCc2ccccc2)c2c(c1)c(C)cn2S(=O)(=O)c1ccccc1)S(C)(=O)=O , what is it?
Reply text: inactive

Inquiry: And then CCCNC(=O)N(C)C(=O)N1N=C(c2ccccc2)C1c1ccccc1 (stereo not given) , what is it?
Reply text: inactive

Inquiry: And then O=[N+]([O-])c1ccccc1S(=O)(=O)c1cc(O)cc2c1NCCC2 , what is it?
Reply text: inactive

Inquiry: And then c1ccc(CN2CCCCC(Sc3ccccc3)CC2)cc1 (stereo not given) , what is it?
Reply text: inactive

Inquiry: And then CNC(=O)OCC1=C(COC(=O)NC)CN(c2ccccc2)C1 , what is it?
Reply text: inactive

Inquiry: And then CO[C@H]1[C@@H](O)[C@@H](C)O[C@@H](O[C@H]2CC[C@@]3(C)[C@H](CC[C@@H]4[C@@H]3CC[C@]3(C)[C@@H](C5=CC(=O)OC5)CC[C@]43O)C2)[C@@H]1O [ODOROSIDE H] , what is it?
Reply text: active

Inquiry: And then O=C1C2CCCCC2C(=O)N1n1c(Cc2ccc(Cl)cc2)n[nH]c1=O (stereo not given) , what is it?
Reply text: inactive

Inquiry: And then CCOC(=O)C(NCc1ccc2c(c1)OCO2)(NC(=O)c1ccccc1)C(F)(F)F (stereo not given) , what is it?
Reply text: inactive

Inquiry: And then C/C(=N\NS(=O)(=O)c1ccc(C)cc1)c1cc2ccccc2n1C , what is it?
Reply text: inactive

Inquiry: And then N=C1NC2(O)C(=O)c3ccccc3C2(O)N1 (stereo not given) , what is it?
Reply text: inactive

Inquiry: And then COc1ccc2nc3cccc([N+](=O)[O-])c3c(NCCC(=O)O)c2c1 , what is it?
Reply text: inactive

Inquiry: And then Cc1cc(=O)n(-c2ccccc2C)c(C)n1 , what is it?
Reply text: inactive

Inquiry: And then CC1C(c2ccccc2)N(C)C(c2ccccc2)C(C)C1(O)c1ccccc1 (stereo not given) , what is it?
Reply text: inactive

Inquiry: And then CC12CCC([C@H](N3CCOCC3)/C1=N\OCCN1CCCC1)C2(C)C (stereo not given in full) , what is it?
Reply text: inactive

Inquiry: And then O=C1C=C(c2[nH]c3ccccc3c2C2=CC(=O)c3ccccc3C2=O)C(=O)c2ccccc21 , what is it?
Reply text: inactive

Inquiry: And then c1cncc(C2c3[nH]c4ccccc4c3CCN2CCN2CCCCC2)c1 (stereo not given) , what is it?
Reply text: inactive
